For each of the compounds below, state its Minimum inhibitory concentration (MIC).
Test system: S. aureus (ATCC 25923)
Format: cell-based, Staphylococcus aureus
test-settings: S. aureus (ATCC25923); 5×10^5 CFU.ml^−1, Mueller-Hinton Broth, 37°C, 24 h, OD 595 nm, biological triplicates
Where a SMILES comes first, the peptide text is derived from it.
Report the figure in µM without appending any unit label.

Qu. Entry CC(C)C[C@H](NC(=O)[C@H](C)NC(=O)CNC(=O)[C@H](Cc1ccccc1)NC(=O)CN)C(=O)N[C@@H](Cc1ccccc1)C(=O)N[C@@H](CCCCN)C(=O)N[C@@H](Cc1ccccc1)C(=O)N[C@@H](CC(C)C)C(=O)N[C@@H](C)C(=O)N[C@@H](CCCCN)C(=O)N[C@@H](CCCCN)C(=O)N[C@H](C(=O)N[C@@H](C)C(=O)N[C@@H](CCCCN)C(=O)N[C@H](C(=O)N[C@H](C(=O)N[C@@H](C)C(N)=O)C(C)C)[C@@H](C)O)C(C)C [Peptide R1b] (H-GFGALFKFLAKKVAKTVA-NH2) : reported Minimum inhibitory concentration (MIC) = ?
Ans. 33.77

Qu. Entry CC(C)C[C@H](NC(=O)[C@H](C)NC(=O)CNC(=O)[C@H](Cc1ccccc1)NC(=O)CN)C(=O)N[C@@H](Cc1ccccc1)C(=O)N[C@@H](CCCCN)C(=O)N[C@@H](Cc1ccccc1)C(=O)N[C@@H](CC(C)C)C(=O)N[C@@H](C)C(=O)N[C@@H](CCCCN)C(=O)N[C@@H](CCCCN)C(=O)N[C@H](C(=O)N[C@@H](C)C(=O)N[C@@H](CCCCN)C(=O)N[C@H](C(=O)N[C@H](C(=O)N[C@@H](C)C(=O)N[C@@H](CCCCN)C(N)=O)C(C)C)[C@@H](C)O)C(C)C [Peptide R1a] (H-GFGALFKFLAKKVAKTVAK-NH2) : reported Minimum inhibitory concentration (MIC) = ?
Ans. 15.81

Qu. Entry CC(C)C[C@H](NC(=O)[C@H](C)NC(=O)CNC(=O)[C@H](Cc1ccccc1)NC(=O)CN)C(=O)N[C@@H](Cc1ccccc1)C(=O)N[C@@H](CCCCN)C(=O)N[C@@H](CCCNC(=N)N)C(=O)N[C@@H](CC(C)C)C(=O)N[C@@H](C)C(=O)N[C@@H](CCCCN)C(=O)N[C@@H](CCCCN)C(=O)N[C@H](C(=O)N[C@@H](C)C(=O)N[C@@H](CCCCN)C(=O)N[C@H](C(=O)N[C@H](C(=O)N[C@@H](C)C(N)=O)C(C)C)[C@@H](C)O)C(C)C [Peptide R3b] (H-GFGALFKRLAKKVAKTVA-NH2) : reported Minimum inhibitory concentration (MIC) = ?
Ans. 67.21

Qu. Entry CC(C)C[C@H](NC(=O)[C@H](C)NC(=O)CNC(=O)[C@H](Cc1ccccc1)NC(=O)CN)C(=O)N[C@@H](Cc1ccccc1)C(=O)N[C@@H](CCCCN)C(=O)N[C@@H](CCCNC(=N)N)C(=O)N[C@@H](CC(C)C)C(=O)N[C@@H](C)C(=O)N[C@@H](CCCCN)C(=O)N[C@@H](C)C(=O)N[C@H](C(=O)N[C@@H](C)C(=O)N[C@@H](CCCCN)C(=O)N[C@@H](C)C(=O)N[C@H](C(=O)N[C@@H](C)C(N)=O)C(C)C)C(C)C [Peptide R8b] (H-GFGALFKRLAKAVAKAVA-NH2) : reported Minimum inhibitory concentration (MIC) = ?
Ans. 17.60
